Reference for the values: patent US20060205733A1

Test: Pharmacokinetic drug interaction study, sitaxsentan and sildenafil
Format: in vivo, human
Conditions: human, plasma, po, 100 mg, single 100 mg oral sildenafil after placebo daily for seven days; mean ± SD; read-out: t½ (converted)
Counter-ions that a name gives are not always drawn.
reported-metric: half-life (h)
The reply should contain only the number, in h.

Qu. Look up and state reported half-life for CCCc1nn(C)c2c(=O)[nH]c(-c3cc(S(=O)(=O)N4CCN(C)CC4)ccc3OCC)nc12 [Sildenafil, citrate]
Ans. 2.76

###

Assay: Pharmacokinetic drug interaction study, sitaxsentan and sildenafil
Format: in vivo, human
Conditions: human, plasma, po, 100 mg, single 100 mg oral sildenafil after 100 mg sitaxsentan daily for seven days; mean ± SD
Where a name gives a salt, the structure may show the parent alone.
reported-metric: AUC(0-inf) (ng·h/mL)
The reply should contain only the number, in ng·h/mL.

Qu. Look up and state reported AUC(0-inf) for CCCc1nn(C)c2c(=O)[nH]c(-c3cc(S(=O)(=O)N4CCN(C)CC4)ccc3OCC)nc12 [Sildenafil, citrate]
Ans. 1650

###

Test: Pharmacokinetic drug interaction study, sitaxsentan and sildenafil
Assay type: in vivo, human
Details: human, plasma, po, 100 mg, single 100 mg oral sildenafil after placebo daily for seven days; mean ± SD; read-out: AUC0-t
Structures can show the parent of a compound that is named as a salt.
reported-metric: AUC0-t (ng·h/mL)
The reply should contain only the number, in ng·h/mL.

Qu. Look up and state reported AUC0-t for CCCc1nn(C)c2c(=O)[nH]c(-c3cc(S(=O)(=O)N4CCN(C)CC4)ccc3OCC)nc12 [Sildenafil, citrate]
Ans. 1220

###

Test: Pharmacokinetic drug interaction study, sitaxsentan and sildenafil
Type: in vivo, human
Conditions: human, plasma, po, 100 mg, single 100 mg oral sildenafil after 100 mg sitaxsentan daily for seven days; mean ± SD; read-out: AUC0-t
Counter-ions that a name gives are not always drawn.
reported-metric: AUC0-t

Qu. Look up and state reported AUC0-t for CCCc1nn(C)c2c(=O)[nH]c(-c3cc(S(=O)(=O)N4CCN(C)CC4)ccc3OCC)nc12 [Sildenafil, citrate]
Ans. 1580 ng·h/mL

###

Experiment: Pharmacokinetic drug interaction study, sitaxsentan and sildenafil
Type: in vivo, human
Conditions: human, plasma, po, 100 mg, single 100 mg oral sildenafil after placebo daily for seven days; mean ± SD
Structures can show the parent of a compound that is named as a salt.
reported-metric: AUC(0-inf) (ng·h/mL)
The reply should contain only the number, in ng·h/mL.

Qu. Look up and state reported AUC(0-inf) for CCCc1nn(C)c2c(=O)[nH]c(-c3cc(S(=O)(=O)N4CCN(C)CC4)ccc3OCC)nc12 [Sildenafil, citrate]
Ans. 1300

###

Assay: Pharmacokinetic drug interaction study, sitaxsentan and sildenafil
Assay type: in vivo, human
Conditions: human, plasma, po, 100 mg, single 100 mg oral sildenafil after 100 mg sitaxsentan daily for seven days; median; read-out: Tmax
Counter-ions that a name gives are not always drawn.
reported-metric: Tmax (h)
The reply should contain only the number, in h.

Qu. Look up and state reported Tmax for CCCc1nn(C)c2c(=O)[nH]c(-c3cc(S(=O)(=O)N4CCN(C)CC4)ccc3OCC)nc12 [Sildenafil, citrate]
Ans. 1.25

###

Assay: Pharmacokinetic drug interaction study, sitaxsentan and sildenafil
Format: in vivo, human
Details: human, plasma, po, 100 mg, single 100 mg oral sildenafil after placebo daily for seven days; mean ± SD; read-out: Vz/F
Counter-ions that a name gives are not always drawn.
reported-metric: Vd/F (L)
The reply should contain only the number, in L.

Qu. Look up and state reported Vd/F for CCCc1nn(C)c2c(=O)[nH]c(-c3cc(S(=O)(=O)N4CCN(C)CC4)ccc3OCC)nc12 [Sildenafil, citrate]
Ans. 43.6
